tested on: NanoLuc luciferase (NLuc); assay: normalised percent inhibition of luminescence (vs positive and negative controls); higher = stronger inhibition; settings: metal salt concentration 0.05 mM; 100 mM HEPES buffer
Parameter threshold = 10%. Response is Y when normalised percent inhibition meets or exceeds it, else N.

>>> class_label("[Cl][Fe][Cl] [iron(II) chloride]")
"N"
>>> class_label("[Cl][Pt-2]([Cl])([Cl])[Cl].[K+].[K+] [potassium tetrachloroplatinate(II)]")
"Y"
>>> class_label("O=[N+]([O-])[O-].O=[N+]([O-])[O-].[Cu+2] [copper(II) nitrate]")
"Y"
>>> class_label("[Cl][Sn][Cl] [tin(II) chloride]")
"N"
>>> class_label("O.O.O.O.O.O.O.O=S(=O)([O-])[O-].[Mg+2] [magnesium sulfate]")
"N"
>>> class_label("O=S(=O)([O-])[O-].[Fe+2] [iron(II) sulfate]")
"N"
>>> class_label("O=[N+]([O-])[O-].[Ag+] [silver nitrate]")
"Y"
>>> class_label("[Cl][Fe]([Cl])[Cl] [iron(III) chloride]")
"Y"
>>> class_label("O=[N+]([O-])[O-].O=[N+]([O-])[O-].[Cd+2] [cadmium nitrate]")
"N"
>>> class_label("CC#N.CC#N.CC#N.CC#N.F[B-](F)(F)F.[Cu+] [tetrakis(acetonitrile)copper(I) tetrafluoroborate]")
"Y"
